Sourced from paper PMC5429698

# Test system: L. mexicana intramacrophage amastigotes in infected RAW.264.7 macrophages
# experiment summary: microbe, parasite or virus in culture
# Assay type: cell-based
# condition set: Leishmania mexicana, RAW264.7, 48 h, 48 h treatment; read-out: IC50 (µM) ± SD L. mexicana infected RAW.264.7 macrophages
For each of the compounds below, state its IC50.
Lab book: enter the figure in µM, no units written.

Please look up its IC50: CCCCCCCCCCCCCCCCOP(=O)([O-])OCC[N+](C)(C)C [Miltefosine, reference compound]
52.6

Name the recorded IC50 for Nc1nc2c(ncn2C2OC(Cn3cc(-c4ccc(-c5ccccc5)cc4)nn3)C(O)C2O)c(=O)[nH]1 (centres unmarked) .
45.4

Dear colleague, I am looking for the recorded IC50 of the following compound: `O=C(NCc1ccccc1)c1ccc2nc(-c3ccccc3)c(-c3ccccc3)nc2c1`
11.7
